Biological target: T1, ECF27_4265
T1 chain: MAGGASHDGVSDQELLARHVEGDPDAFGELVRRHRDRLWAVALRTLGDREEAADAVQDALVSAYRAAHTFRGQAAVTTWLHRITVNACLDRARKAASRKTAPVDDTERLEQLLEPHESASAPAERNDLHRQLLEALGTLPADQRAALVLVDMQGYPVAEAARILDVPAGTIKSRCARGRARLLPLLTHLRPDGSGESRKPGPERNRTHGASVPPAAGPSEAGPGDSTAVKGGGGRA
So I've got a bunch of binders here, and I need their fold repression values.

Query: Can you look up the measured fold repression of AS15_436 (protein) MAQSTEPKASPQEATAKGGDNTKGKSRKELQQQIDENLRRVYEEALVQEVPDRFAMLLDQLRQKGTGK for me?
Result: 2.89

Query: Can you look up the measured fold repression of AS31_34 (protein) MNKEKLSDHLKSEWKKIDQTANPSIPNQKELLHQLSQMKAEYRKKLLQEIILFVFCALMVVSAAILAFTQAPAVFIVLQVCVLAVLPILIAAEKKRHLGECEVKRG for me?
Result: 1.48

Query: Can you look up the measured fold repression of AS25_1645 (protein) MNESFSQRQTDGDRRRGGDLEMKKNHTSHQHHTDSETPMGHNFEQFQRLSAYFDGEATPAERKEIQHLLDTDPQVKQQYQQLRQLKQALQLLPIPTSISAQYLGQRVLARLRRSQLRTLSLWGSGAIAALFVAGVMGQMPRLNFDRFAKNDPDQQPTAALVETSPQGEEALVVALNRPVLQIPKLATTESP for me?
Result: 24.5

Query: Can you look up the measured fold repression of AS03_1198 (protein) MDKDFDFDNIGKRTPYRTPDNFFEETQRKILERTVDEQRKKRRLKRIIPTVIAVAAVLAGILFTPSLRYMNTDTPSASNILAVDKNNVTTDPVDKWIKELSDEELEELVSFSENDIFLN for me?
Result: 0.852

Data credit: paper PMC3817407
